self-cleavage kobs at 640 uM GlcN6P values, listed per item
B1: glmS ribozyme (parent)
chain: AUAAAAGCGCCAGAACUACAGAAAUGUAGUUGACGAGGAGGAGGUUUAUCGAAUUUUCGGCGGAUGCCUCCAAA

- Variants of: B1
- Assay Details: self-cleavage kobs at 640 uM GlcN6P; higher = faster cleavage; RNA array
- Condition Description: with glucosamine-6-phosphate
Variants at the floor of the assay were thinned out.
Measure Name: self-cleavage kobs at 640 uM GlcN6P

| Mutation | Reported |
| --- | --- |
| G37A U54G | 0.000413 s⁻¹ |
| G37A U69C | 0.000116 s⁻¹ |
| U45G C70U | 0.00288 s⁻¹ |
| A12U U47C | 0.00299 s⁻¹ |
| C16G A36U | < 1e-05 s⁻¹ |
| G51U A52G C58U G59A | < 1e-05 s⁻¹ |
| A14G C68A | 7.66e-05 s⁻¹ |
| G9A G13A | < 1e-05 s⁻¹ |
| U31G A64U | < 1e-05 s⁻¹ |
| G32A G44U C67G | 0.000431 s⁻¹ |
| U30C G62C | < 1e-05 s⁻¹ |
| G29C G40C | 3.65e-05 s⁻¹ |
| A14C C58A | 3.29e-05 s⁻¹ |
| C8U G63C | < 1e-05 s⁻¹ |
| G41U C61G | < 1e-05 s⁻¹ |
| C61U C67U | < 1e-05 s⁻¹ |
| C8A U31G | < 1e-05 s⁻¹ |
| G13U U55G U56C | 7.76e-05 s⁻¹ |
| G7U A12U U45G | < 1e-05 s⁻¹ |
| A52G U57C | 9.94e-05 s⁻¹ |
| A39U C58A A64U | < 1e-05 s⁻¹ |
| A52C G59U | < 1e-05 s⁻¹ |
| U45C U56C | 5.37e-05 s⁻¹ |
| G29U U56G | 0.000648 s⁻¹ |
| C50A A52C | < 1e-05 s⁻¹ |
| U31C C67U | 0.000375 s⁻¹ |
| C34U G51C U54A | < 1e-05 s⁻¹ |
| A6C U46A U49A | < 1e-05 s⁻¹ |
| G7A G35C G59A C67G | < 1e-05 s⁻¹ |
| G41A G51A C68G | < 1e-05 s⁻¹ |
| G26U G60A C68A | 9.37e-05 s⁻¹ |
| A36G G66U | < 1e-05 s⁻¹ |
| G9A U57A | < 1e-05 s⁻¹ |
| U56G C71A | 0.000589 s⁻¹ |
| C8A G44C U46A | < 1e-05 s⁻¹ |
| C10A U31C | < 1e-05 s⁻¹ |
